Reference for the values: the supplement of paper PMC10567573

Listed here: items and their measured protein stability index.
B1: KRT34 (parent)
chain: YQSYFKTIEELQQKILCAKAENAR

- Variants of: B1
- assay-details: protein stability index of a GFP-peptide fusion (GPS, HEK-293T) (PSI 1-6); higher = more stable;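 also: lentivirally expressed fusions sorted by FACS into six bins by GFP to DsRed ratio, PSI derived from sequencing read proportions per bin multiplied by bin number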
- setup-conditions: c terminus: a fixed tail appended
measurement-kind: protein stability index

>>> df
    mutation_list  result
 0           L16I    1.67
 1           A23P    2.38
 2            Y1Q    3.45
 3           A18D    2.16
 4           A23F    2.72
 5            Y4Q    2.65
 6           Q12I    3.66
 7            I8L    1.98
 8           A23C    1.39
 9           A20L    2.34
10            S3E    1.67
11           L11R    1.83
12           N22L    2.26
13           K19Q    2.62
14           K14P    1.97
15           A18C     2.5
16           L16W    1.29
17            Y4L    1.93
18            Y4P    2.19
19            K6A    1.96
20            Q2N    2.28
21           E21C    2.38
22            Q2R    2.25
23           Q12D    1.69
24            T7D    2.44
25           K19P    2.15
26           Q12V    1.55
27            Y1A     3.3
28           L11Q    1.98
29           A23N    1.55
30           K19E    1.99
31           C17R    2.42
32           I15T    1.57
33           K14T    1.56
34            F5N    3.02
35            Y4V    1.57
36           C17W    2.94
37           K14M    1.46
38           A23G    1.96
39           N22Y    1.59
40           E21F    1.17
41           Q12Y    1.77
42           L16T    1.72
43           A23V    1.32
44           I15F     1.6
45            Y4N    2.21
46           K14D    1.23
47           E21G    1.03
48            I8V    2.85
49            K6H    2.24
50            S3I    1.61
51           L16K    1.92
52           E10A    1.95
53            T7L    1.64
54           I15C    1.16
55            I8H    1.62
56           C17F    1.97
57           R24S    1.74
58            I8C    1.57
59            Y1T    3.08
60            Y4R    2.14
61           Q13D    2.26
62           Q13Y    1.54
63            Y1S    2.93
64           R24W    2.32
65            K6M     2.1
66            I8W    1.42
67           C17P    2.25
68           C17V    1.37
69            E9D    2.25
70           A23H    2.93
71           L11I    2.13
72           I15D    1.88
73           A23I    1.65
74           L11N    2.41
75            I8F    2.23
76           A20M    2.57
77           A20P    1.79
78           E10V    2.04
79           Q12L     1.9
80           A23D    2.08
81           E10H    1.69
82           A20Q    1.78
83           R24L    1.77
84           E10W    1.72
85           C17S    2.19
86           K14C     1.2
87           K19C    1.78
88            S3L    1.77
89           E21I    1.29
90           I15K    2.71
